Test: Antiproliferative activity against human U251MG cells assessed as inhibition of cell growth after 72 hrs by MTT assay
Type: functional, cell-based
Conditions: U-251, 72 h
pIC50: −log10 of the molar value.

compound | pIC50
Oc1ccccc1-c1cc2ccccc2[nH]1 [2-(2'-HYDROXYPHENYL)-1H-INDOLE] | 4.04

----------
Assay: Antiproliferative activity against human IN859 cells assessed as inhibition of cell growth […] by MTS assay
Assay type: functional, cell-based

compound | unit-symbol | IC50
Oc1ccccc1-c1cc2ccccc2[nH]1 [2-(2'-HYDROXYPHENYL)-1H-INDOLE] | µM | 400
